Readings of protein stability index for the listed sequences
# ASSAY INFO: protein stability index of a GFP-peptide fusion (yeast GPS) (PSI 1-4); higher = more stable; sorted into four equal gates, so the index is relative within each strain
# CONDITION: ubr1∆
// no unit, no text: just the number

Recorded protein stability index, per entry:
[
  {
    "SEQ STRING": "LEHDVEYRPFSKKVLEC [DIS3]",
    "protein stability index": 3.37
  },
  {
    "SEQ STRING": "DIFVYLTYDKDLTNNPQ [MTR3]",
    "protein stability index": 2.28
  },
  {
    "SEQ STRING": "SMFLRIDYSNSQIRLYA [RGR1]",
    "protein stability index": 2.44
  },
  {
    "SEQ STRING": "LGHKELKVRKGHIAKLM [RPB2]",
    "protein stability index": 2.72
  },
  {
    "SEQ STRING": "THVANFMNDAAADVSAV [YML103C/NUP188]",
    "protein stability index": 2.84
  },
  {
    "SEQ STRING": "VCDLALRFGEGASGEER [PUP2]",
    "protein stability index": 3.1
  },
  {
    "SEQ STRING": "PQGRQSTTFADCPVVPA [RPC40]",
    "protein stability index": 2.87
  },
  {
    "SEQ STRING": "LDIGLQRTTTGARVFGA [RPL5]",
    "protein stability index": 1.12
  },
  {
    "SEQ STRING": "ADKSLPSSMATLLKNLR [YJR042W/NUP85]",
    "protein stability index": 2.86
  },
  {
    "SEQ STRING": "LKNTKYFQQTTIDWVEA [PRP8]",
    "protein stability index": 2.75
  }
]

Identify the reported protein stability index for the following entry. SSEQFNVWDWNNWTSAT [GAL11]
3.1

Specify measured protein stability index for DILLNERVWNICLYSSF [AAR2] .
1.84

---

Recorded protein stability index by entry
# ASSAY INFO: protein stability index of a GFP-peptide fusion (yeast GPS) (PSI 1-4); higher = more stable; sorted into four equal gates, so the index is relative within each strain
# CONDITION: doa10∆

Example results:
[
  {
    "SEQ STRING": "AQSRNVEIEKRILKLGT [YGR119C/NUP57]",
    "DATA VALUE": 3.33
  },
  {
    "SEQ STRING": "QLLDIAEFKKENLADLD [LIN1]",
    "DATA VALUE": 1.48
  },
  {
    "SEQ STRING": "PDLDTECFISMQSTSPA [SWI1]",
    "DATA VALUE": 2.68
  },
  {
    "SEQ STRING": "LQKVENQTIKEAKDAII [YIL149C/MLP2]",
    "DATA VALUE": 3.05
  },
  {
    "SEQ STRING": "LRLTEQKSPKIRDPLTQ [RPC82]",
    "DATA VALUE": 1.6
  }
]

Give reported protein stability index value for TELKKKLDDLENTKDNL [SMC1]
3.01

Answer with reported protein stability index of QNKLFYITNADDSTKFQ [SIR3]
2.96

Identify the reported protein stability index for the following entry. PAELDLRGSLLSRKPSD [RPC82]
2.9

Return value of protein stability index for input VNLEDNTQDLLLLLSLF [YML103C/NUP188] , no commentary.
1.68

Look up protein stability index of RNVTKGDIVRMLETAGF [SMC3] and report it.
2.81

Determine from records and report protein stability index for IEKSRLFSEKTIRYLMQ [SNF6]
1.82

---

# ASSAY INFO: protein stability index of a GFP-peptide fusion (yeast GPS) (PSI 1-4); higher = more stable; sorted into four equal gates, so the index is relative within each strain
# CONDITION: pdr5∆
Class Criterion met: protein stability index at least 3. Class Criterion not met: protein stability index below 3.

Completed entries (count: 3):
[
  {
    "SEQ STRING": "WKQDLTKEEAIKLASDA [PUP1]",
    "GROUP": "Criterion met"
  },
  {
    "SEQ STRING": "EISPQDSIASVLSPDSN [GAL11]",
    "GROUP": "Criterion not met"
  },
  {
    "SEQ STRING": "LVLNKSSIDRGFGRCET [RET1]",
    "GROUP": "Criterion met"
  }
]

Hi, just wondering whether EDRNESVNIAFAISMGY [ECM29] shows protein stability index of 3 or higher.
Criterion not met

Does protein stability index meet or surpass 3 for PSILEDSLENNEGVPSP [FAS1] ?
Criterion not met

Given AYLLLNAAGNTPDATKI [RPP2A] , state whether its protein stability index is at least 3.
Criterion not met

Entry LEDFENFKGLAKEKERM [YIL149C/MLP2] : is its protein stability index no less than 3?
Criterion met

Hello, I need to know if NHTAHNQTRKAHRNGIK [RPL29] has measured protein stability index not below 3. Thanks!
Criterion not met

Could you verify whether the entry IRSVALNDSNVKSFKPH [RRP42] shows protein stability index of no less than 3?
Criterion met

Tell me whether protein stability index is at least 3 here: CFKPMSLTSKRLISQSL [RIP1]
Criterion not met

Could you please find out whether VVGQNQLIDQFEWDISN [SNF5] has protein stability index that meets 3 or exceeds it?
Criterion not met

---

Reported protein stability index values are given for each entry in this list.
# ASSAY INFO: protein stability index of a GFP-peptide fusion (yeast GPS) (PSI 1-4); higher = more stable; sorted into four equal gates, so the index is relative within each strain
# CONDITION: san1∆

Worked cases, protein stability index given:
[
  {
    "SEQ STRING": "LKPVDKLKPMNIERKQT [SIN4]",
    "protein stability index": 2.83
  },
  {
    "SEQ STRING": "IASMSTVRASSLQDLIY [SMC2]",
    "protein stability index": 2.53
  },
  {
    "SEQ STRING": "NALYDTLLESNLCKIIE [RPN6]",
    "protein stability index": 2.01
  },
  {
    "SEQ STRING": "DFTLPEDFAPLLAEEEE [PRP8]",
    "protein stability index": 3.23
  },
  {
    "SEQ STRING": "GEVVYLRKQKDSSTTSS [ITC1]",
    "protein stability index": 1.48
  },
  {
    "SEQ STRING": "FAQENSELAVATTSVMM [SRB6]",
    "protein stability index": 3.13
  },
  {
    "SEQ STRING": "VAALALLFAINSYQPSP [SMC1]",
    "protein stability index": 1.89
  },
  {
    "SEQ STRING": "FKLVSTPSSNSNSSELE [MED1]",
    "protein stability index": 2.35
  }
]

Specify protein stability index for FSVRTKDSNKDVVVEGL [RPL10] and stop.
2.13

---

# ASSAY INFO: protein stability index of a GFP-peptide fusion (yeast GPS) (PSI 1-4); higher = more stable; sorted into four equal gates, so the index is relative within each strain
# CONDITION: pdr5∆
Measured protein stability index values are reported for all entries that follow.
Answer with the value's number alone.

[
  {
    "SEQ STRING": "DSKLLPKNIEPPLTSQY [SWI3]",
    "DATA VALUE": 2.91
  },
  {
    "SEQ STRING": "ILRKELSEEKEVIFTDV [MCD1]",
    "DATA VALUE": 3.02
  },
  {
    "SEQ STRING": "KSSFVKESAVISKQKSK [SMC1]",
    "DATA VALUE": 2.34
  },
  {
    "SEQ STRING": "ADKSLPSSMATLLKNLR [YJR042W/NUP85]",
    "DATA VALUE": 2.81
  },
  {
    "SEQ STRING": "EHFLKLNIDFGSDKQMF [YML103C/NUP188]",
    "DATA VALUE": 2.59
  },
  {
    "SEQ STRING": "NYGSSLQWHAMIELICS [AAR2]",
    "DATA VALUE": 1.22
  },
  {
    "SEQ STRING": "PPPGLDELETKAEKKVE [PRP8]",
    "DATA VALUE": 3.21
  },
  {
    "SEQ STRING": "DALRRGMLAMASLHSKE [MED4]",
    "DATA VALUE": 2.23
  }
]

Identify the reported protein stability index for the following entry. EDNKYAIAGNSTTNSDV [RGR1]
2.92

For the sequence TIPILESDSKATLQSNE [DSN1] , give its reported protein stability index.
2.16

For the sequence VLKTLEYKLATYGVPGS [NUT1] , give its reported protein stability index.
2.54

Data origin: the supplement of paper PMC9732359
